So I've got IC50 readings for Disintegrin and metalloproteinase domain-containing protein 17 (Homo sapiens), take a look.
Give a bare numeral; the unit nM is implied.

If you can, please state the reported IC50 value of `Cc1cc(CCC2CCN(S(=O)(=O)C[C@](C)(C[C@H](C)c3ncc(F)cn3)N(O)C=O)CC2)n(C)n1` .
2800

If you can, please state the reported IC50 value of `Cc1ccc(C)c(CCC2CCN(S(=O)(=O)C[C@](C)(C[C@H](C)c3ncc(F)cn3)N(O)C=O)CC2)c1` .
22

If you can, please state the reported IC50 value of `Cc1cc(C)c(CCC2CCN(S(=O)(=O)C[C@](C)(C[C@H](C)c3ncc(F)cn3)N(O)C=O)CC2)cn1` .
3000

----------
Below, each entry is listed with its recorded pIC50.
# target.desc: Collagenase 3 (Homo sapiens, UniProt P45452)
# test.method.notes: Inhibition of recombinant human MMP13 assessed as substrate cleavage by measuring increase in fluorescence after 16 hrs
pIC50: −log10 of the molar value.

Illustrative cases are given below, each with its answer.
| smiles.entry | pIC50 |
| --- | --- |
| C[C@@H](C[C@@](C)(CS(=O)(=O)N1CCC(CCc2ccc(S(C)(=O)=O)cc2Cl)CC1)N(O)C=O)c1ncc(F)cn1 | 6.46 |
| C[C@@H](C[C@@](C)(CS(=O)(=O)N1CCC(CCc2ncc(C(F)(F)F)cc2Cl)CC1)N(O)C=O)c1ncc(F)cn1 | < 4.80 |
| Cc1noc(C)c1CCC1CCN(S(=O)(=O)C[C@](C)(C[C@H](C)c2ncc(F)cn2)N(O)C=O)CC1 | < 5.09 |

Now consider the entry below.
If you can, please state the reported pIC50 value of `Cc1cc(C)c(CCC2CCN(S(=O)(=O)C[C@](C)(C[C@H](C)c3ncc(F)cn3)N(O)C=O)CC2)cn1` .
< 5.35

----------
# target.desc: Matrix metalloproteinase-14 (Homo sapiens, UniProt P50281)
# test.method.notes: Inhibition of recombinant human MMP14 assessed as substrate cleavage by measuring increase in fluorescence after 16 hrs
pIC50: −log10 of the molar value.
Binary classification by pIC50, with 5 as an inclusive lower bound for YES; all other cases are NO.

For orientation, consider the following solved cases.
| smiles.entry | group.label |
| --- | --- |
| Cc1cc(CCC2CCN(S(=O)(=O)C[C@](C)(C[C@H](C)c3ncc(F)cn3)N(O)C=O)CC2)n(C)n1 | NO |
| C[C@@H](C[C@@](C)(CS(=O)(=O)N1CCC(CCc2ccc(C(F)(F)F)cc2C2CC2)CC1)N(O)C=O)c1ncc(F)cn1 | NO |
| Cc1cc(CCC2CCN(S(=O)(=O)C[C@](C)(C[C@H](C)c3ncc(F)cn3)N(O)C=O)CC2)c(C)cn1 | NO |
| C[C@@H](C[C@@](C)(CS(=O)(=O)N1CCC(CCc2ccc(F)cc2C(F)(F)F)CC1)N(O)C=O)c1ncc(F)cn1 | YES |

Could you please find out whether `Cc1cc(F)ccc1CCC1CCN(S(=O)(=O)C[C@](C)(C[C@H](C)c2ncc(F)cn2)N(O)C=O)CC1` has pIC50 that meets 5 or exceeds it?
YES

Could you please find out whether `C[C@@H](C[C@@](C)(CS(=O)(=O)N1CCC(CCc2cc(F)ccc2Cl)CC1)N(O)C=O)c1ncc(F)cn1` has pIC50 that meets 5 or exceeds it?
YES

Could you please find out whether `C[C@@H](C[C@@H](CS(=O)(=O)N1CCC(OCc2ccc(Cl)cc2Cl)CC1)N(O)C=O)c1ncc(F)cn1` has pIC50 that meets 5 or exceeds it?
YES

Could you please find out whether `Cc1cc(C(F)(F)F)ccc1CCC1CCN(S(=O)(=O)C[C@](C)(C[C@H](C)c2ncc(F)cn2)N(O)C=O)CC1` has pIC50 that meets 5 or exceeds it?
YES

Origin of values: ChEMBL document CHEMBL1681676
